The measured values listed here are drawn from paper PMC7057333.

biological target: LSD1 (Homo sapiens); construct: made in house; host or cells: Escherichia coli Rosetta 2 (pET15b); assay: HRP-coupled fluorescence LSD1 demethylation activity and inhibition assay, substrate H3_1-21 K4(Me); type: biochemical; conditions: 100 μM; supplement sheet SMILES and Activity; read-out: Inhibition at 100 μM (%)
Bridge positions count the residues as written; N and C are the ends. Square brackets hold non-standard residues; d marks the D form. Peptide text beside a SMILES is read from it. Cit = NC(=O)NCCC[C@H](N)C(=O)O
readoutLabel: inhibition at 100 µM (%)

{"columns": ["molecule", "valueUnits", "readoutNumber"],
 "data": [
  ["CSCC[C@@H]1NC(=O)[C@@H](NC(=O)[C@H](CCCNC(=N)N)NC(=O)[C@H](C)N)CCC/C=C\\CCC[C@@H](C(=O)N[C@@H](C)C(=O)N[C@@H](CCCNC(=N)N)C(=O)N[C@@H](CCCCN)C(=O)N[C@@H](CO)C(=O)N[C@H](C(N)=O)[C@@H](C)O)NC(=O)[C@H](CCC(N)=O)NC1=O [Peptide 23, ARG^penMQG^penARKST-NH2]", "%", 75],
  ["CSCC[C@@H]1NC(=O)[C@@H](NC(=O)[C@H](CCCNC(=N)N)NC(=O)[C@H](C)N)CCC(=O)NCCCC[C@@H](C(=O)N[C@@H](C)C(=O)N[C@@H](CCCNC(N)=O)C(=O)N[C@@H](CCCCN)C(=O)N[C@@H](CO)C(=O)N[C@H](C(N)=O)[C@@H](C)O)NC(=O)[C@H](CCC(N)=O)NC1=O [Peptide 34] (H-AREMQKA[Cit]KST-NH2; lactam 3-6)", "%", 97],
  ["CSCC[C@@H]1NC(=O)[C@@H](NC(=O)[C@H](CCCNC(=N)N)NC(=O)[C@@H]2CCCN2)CCCCNC(=O)CC[C@@H](C(=O)N[C@@H](C)C(=O)N[C@@H](CCCNC(=N)N)C(=O)N[C@@H](CCCCN)C(=O)N[C@@H](CO)C(=O)N[C@H](C(N)=O)[C@@H](C)O)NC(=O)[C@H](CCC(N)=O)NC1=O [Peptide 29] (H-PRKMQEARKST-NH2; lactam 3-6)", "%", 90]
]}

----------
Item-by-item account of pKi
biological target: LSD1 (Homo sapiens, UniProt O60341); construct: made in house; host or cells: Escherichia coli Rosetta 2 (pET15b); assay: HRP-coupled fluorescence LSD1 demethylation activity and inhibition assay, substrate H3_1-21 K4(Me); type: biochemical; details: read-out: Ki
pKi: −log10 of the molar value.

{"columns": ["compound", "experimentalTarget", "pKi"],
 "data": [
  ["CSCC[C@@H]1NC(=O)[C@@H](NC(=O)[C@H](CCCNC(=N)N)NC(=O)[C@H](C)N)CCCCNC(=O)CC[C@@H](C(=O)N[C@@H](C)C(=O)N[C@@H](CCCNC(=N)N)C(=O)N[C@@H](CCCCN)C(=O)N[C@@H](CO)C(=O)N[C@H](C(N)=O)[C@@H](C)O)NC(=O)[C@H](CCC(N)=O)NC1=O [Peptide 27]", "LSD1 (Homo sapiens, UniProt O60341)", 4.51],
  ["CSCC[C@@H]1NC(=O)[C@@H](NC(=O)[C@H](CCCNC(=N)N)NC(=O)[C@H](C)N)Cc2cn(nn2)CCCC[C@@H](C(=O)N[C@@H](C)C(=O)N[C@@H](CCCNC(=N)N)C(=O)N[C@@H](CCCCN)C(=O)N[C@@H](CO)C(=O)N[C@H](C(N)=O)[C@@H](C)O)NC(=O)[C@H](CCC(N)=O)NC1=O [Peptide 36, ARG^prgMQK^azdARKST-NH2]", "LSD1 (Homo sapiens, UniProt O60341)", 4.52]
]}
